Every entry's value here was drawn from patent US20190119251A1.

Answer each item with its documented ratio IC50 hV2/hV1a.
Molecular target: human V1a receptor (Homo sapiens, UniProt P37288)
Construct: expressed in transfected cells; host or cells: CHO K1 (Chinese hamster ovary), also stably transfected with modified aequorin
Sequence (P37288 whole entry): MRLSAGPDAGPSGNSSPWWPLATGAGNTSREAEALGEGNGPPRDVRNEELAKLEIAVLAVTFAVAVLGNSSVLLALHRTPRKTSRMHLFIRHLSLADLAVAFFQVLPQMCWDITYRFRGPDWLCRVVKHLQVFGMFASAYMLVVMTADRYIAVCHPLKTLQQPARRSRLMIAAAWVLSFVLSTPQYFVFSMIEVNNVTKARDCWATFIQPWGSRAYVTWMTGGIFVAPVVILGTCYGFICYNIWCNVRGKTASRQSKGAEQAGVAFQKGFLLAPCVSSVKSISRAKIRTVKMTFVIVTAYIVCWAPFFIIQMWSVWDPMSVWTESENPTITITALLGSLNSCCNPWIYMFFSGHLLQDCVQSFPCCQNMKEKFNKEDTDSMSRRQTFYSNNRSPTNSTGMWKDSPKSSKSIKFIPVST
Assay: Cellular in vitro assay for determining vasopressin receptor activity (V1a cell line, aequorin luminescence)
Format: cell-based
Details: ratio of cellular IC50 values, human V2 over human V1a
Answers are plain numbers.

Before answering, review these 3 worked examples.
>>> df
                                 mol_smiles                             target_system  test_result
0  Cc1cnccc1-n1nc(Cn2nc(-c3ccc(Cl)cc3)n(C[C@H](O)C(F)(F)F)c2=O)nc1C(N)=O  human V1a receptor (Homo sapiens, UniProt P37288)         14.0
1  NC(=O)c1nc(Cn2nc(-c3ccc(Cl)cc3)n(C[C@H](O)C(F)(F)F)c2=O)nn1-c1ccncc1F  human V1a receptor (Homo sapiens, UniProt P37288)          3.5
2  CCc1ccccc1-n1nc(Cn2nc(-c3ccc(Cl)cc3)n(C[C@H](O)C(F)(F)F)c2=O)nc1C(N)=O  human V1a receptor (Homo sapiens, UniProt P37288)          3.7

(Q) Write down the reported ratio IC50 hV2/hV1a (system: human V1a receptor (Homo sapiens, UniProt P37288)) of CCOc1ncccc1-n1nc(Cn2nc(-c3ccc(Cl)cc3)n(C[C@H](O)C(F)(F)F)c2=O)nc1C(N)=O
(A) 3.9
